The values you see were collected from the NIST ThermoML archive (doi:10.1021/je1005517).

Test: activity coefficient (dimensionless); of the first substance listed, at infinite dilution; xn = mol fraction of the nth substance listed
Details: 343.15 K; 101 kPa; Liquid; GC; x1 = 0
Provide the recorded activity coefficient for the entries that follow.
Respond using a number only.

Return reported activity coefficient; argument: ClC(Cl)(Cl)Cl [tetrachloromethane] + CCCCCCCCCCCCCCCCCCCCO 0.081

Return reported activity coefficient; argument: Cc1ccccc1 [toluene] + CCCCCCCCCCCCCCCCCCCCO 0.479

Return reported activity coefficient; argument: CC(C)=O [acetone] + CCCCCCCCCCCCCCCCCCCCO 0.0572

Return reported activity coefficient; argument: CC#N [acetonitrile] + CCCCCCCCCCCCCCCCCCO 0.0901

Return reported activity coefficient; argument: CCCCO [butan-1-ol] + CCCCCCCCCCCCCCCCCCCCO 0.387

Return reported activity coefficient; argument: CCOCC [diethyl ether] + CCCCCCCCCCCCCCCCCCCCO 0.0624

Return reported activity coefficient; argument: CCCCC [pentane] + CCCCCCCCCCCCCCCCCCCCO 0.0801

Return reported activity coefficient; argument: CCCCOC(C)=O [butyl ethanoate] + CCCCCCCCCCCCCCCCCCCCO 0.131

Return reported activity coefficient; argument: CCCCl [1-chloropropane] + CCCCCCCCCCCCCCCCCCCCO 0.0778

Return reported activity coefficient; argument: CCOCC [diethyl ether] + CCCCCCCCCCCCCCCCCCO 0.0219

Return reported activity coefficient; argument: CCCCCC [hexane] + CCCCCCCCCCCCCCCCCCO 0.0411

Return reported activity coefficient; argument: CCCCCCCC [octane] + CCCCCCCCCCCCCCCCCCCCO 0.161

Return reported activity coefficient; argument: Cc1ccccc1 [toluene] + CCCCCCCCCCCCCCCCCCO 0.0343

Return reported activity coefficient; argument: ClC(Cl)Cl [trichloromethane] + CCCCCCCCCCCCCCCCCCO 0.0214

Return reported activity coefficient; argument: CCCO [propan-1-ol] + CCCCCCCCCCCCCCCCCCCCO 0.193

Return reported activity coefficient; argument: C=CCCC [1-pentene] + CCCCCCCCCCCCCCCCCCCCO 0.0742

Return reported activity coefficient; argument: ClC(Cl)Cl [trichloromethane] + CCCCCCCCCCCCCCCCCCCCO 0.0622

Return reported activity coefficient; argument: CC#N [acetonitrile] + CCCCCCCCCCCCCCCCCCCCO 0.265

Return reported activity coefficient; argument: CCCCCCCC [octane] + CCCCCCCCCCCCCCCCCCO 0.0485

Return reported activity coefficient; argument: CO [methanol] + CCCCCCCCCCCCCCCCCCCCO 0.0967

Return reported activity coefficient; argument: C1CCOC1 [tetrahydrofuran] + CCCCCCCCCCCCCCCCCCO 0.0177

Return reported activity coefficient; argument: CO [methanol] + CCCCCCCCCCCCCCCCCCO 0.0357

====

Experiment: activity coefficient (dimensionless); of the first substance listed, at infinite dilution; xn = mol fraction of the nth substance listed
Conditions: 343.15 K; 101 kPa; Liquid; GC; x1 = 0
Provide the recorded activity coefficient for the entries that follow.
Respond using a number only.

Return reported activity coefficient; argument: C1CCCCC1 [cyclohexane] + CCCCCCCCCCCCCCCCCCO 0.0315

Return reported activity coefficient; argument: CCCCCl [1-chlorobutane] + CCCCCCCCCCCCCCCCCCO 0.0338

Return reported activity coefficient; argument: CC(C)=O [acetone] + CCCCCCCCCCCCCCCCCCO 0.0174

====

Assay: activity coefficient (dimensionless); of the first substance listed, at infinite dilution; xn = mol fraction of the nth substance listed
Conditions: 338.15 K; 101.3 kPa; Liquid; GC; x1 = 0
Provide the recorded activity coefficient for the entries that follow.
Respond using a number only.

Return reported activity coefficient; argument: CCCCl [1-chloropropane] + CCCCCCCCCCCCCCCCCCO 0.0294

Return reported activity coefficient; argument: C=CCCCCC [1-heptene] + CCCCCCCCCCCCCCCCCCO 0.0417

Return reported activity coefficient; argument: CCO [ethanol] + CCCCCCCCCCCCCCCCCCO 0.0396

Return reported activity coefficient; argument: CCCCO [butan-1-ol] + CCCCCCCCCCCCCCCCCCO 0.136

Return reported activity coefficient; argument: CCOC(C)=O [ethyl acetate] + CCCCCCCCCCCCCCCCCCO 0.0408

Return reported activity coefficient; argument: C=CCCC [1-pentene] + CCCCCCCCCCCCCCCCCCO 0.0245

====

Provide the recorded activity coefficient for the entries that follow.
Test: activity coefficient (dimensionless); of the first substance listed, at infinite dilution; xn = mol fraction of the nth substance listed
Settings: 333.15 K; 101 kPa; Liquid; GC; x1 = 0
Respond using a number only.

Return reported activity coefficient; argument: CC#N [acetonitrile] + CCCCCCCCCCCCCCCCCCO 0.108

Return reported activity coefficient; argument: CCCCCC [hexane] + CCCCCCCCCCCCCCCCCCO 0.0551

Return reported activity coefficient; argument: CCCCCl [1-chlorobutane] + CCCCCCCCCCCCCCCCCCO 0.0389

Return reported activity coefficient; argument: CC(C)=O [acetone] + CCCCCCCCCCCCCCCCCCO 0.0185

Return reported activity coefficient; argument: CCCCCCCC [octane] + CCCCCCCCCCCCCCCCCCO 0.0513

Return reported activity coefficient; argument: CCOCC [diethyl ether] + CCCCCCCCCCCCCCCCCCO 0.0257

Return reported activity coefficient; argument: CCCCC [pentane] + CCCCCCCCCCCCCCCCCCO 0.0292

Return reported activity coefficient; argument: C1CCOC1 [tetrahydrofuran] + CCCCCCCCCCCCCCCCCCO 0.0204

Return reported activity coefficient; argument: Cc1ccccc1 [toluene] + CCCCCCCCCCCCCCCCCCO 0.0372

Return reported activity coefficient; argument: ClC(Cl)(Cl)Cl [tetrachloromethane] + CCCCCCCCCCCCCCCCCCO 0.0288

Return reported activity coefficient; argument: ClC(Cl)Cl [trichloromethane] + CCCCCCCCCCCCCCCCCCO 0.0227

Return reported activity coefficient; argument: C1CCCCC1 [cyclohexane] + CCCCCCCCCCCCCCCCCCO 0.0365

Return reported activity coefficient; argument: CO [methanol] + CCCCCCCCCCCCCCCCCCO 0.0423

====

Test: activity coefficient (dimensionless); of the first substance listed, at infinite dilution; xn = mol fraction of the nth substance listed
Details: 338.15 K; 101 kPa; Liquid; GC; x1 = 0
endpoint label: activity coefficient

Return reported activity coefficient; argument: ClC(Cl)Cl [trichloromethane] + CCCCCCCCCCCCCCCCCCO 0.022

Return reported activity coefficient; argument: CCCO [propan-1-ol] + CCCCCCCCCCCCCCCCCCCCO 0.213

Return reported activity coefficient; argument: ClC(Cl)Cl [trichloromethane] + CCCCCCCCCCCCCCCCCCCCO 0.0632

Return reported activity coefficient; argument: CCCCl [1-chloropropane] + CCCCCCCCCCCCCCCCCCCCO 0.0779

Return reported activity coefficient; argument: CCOCC [diethyl ether] + CCCCCCCCCCCCCCCCCCO 0.0235

Return reported activity coefficient; argument: C=CCCC [1-pentene] + CCCCCCCCCCCCCCCCCCCCO 0.0813

Return reported activity coefficient; argument: CCCCCC [hexane] + CCCCCCCCCCCCCCCCCCO 0.0468

Return reported activity coefficient; argument: C1CCCCC1 [cyclohexane] + CCCCCCCCCCCCCCCCCCO 0.0337

Return reported activity coefficient; argument: CC(C)=O [acetone] + CCCCCCCCCCCCCCCCCCO 0.0179

Return reported activity coefficient; argument: CCCCC [pentane] + CCCCCCCCCCCCCCCCCCO 0.0272

Return reported activity coefficient; argument: CCCCO [butan-1-ol] + CCCCCCCCCCCCCCCCCCCCO 0.431

Return reported activity coefficient; argument: ClC(Cl)(Cl)Cl [tetrachloromethane] + CCCCCCCCCCCCCCCCCCCCO 0.0862

====

Assay: activity coefficient (dimensionless); of the first substance listed, at infinite dilution; xn = mol fraction of the nth substance listed
Settings: 348.15 K; 101 kPa; Liquid; GC; x1 = 0
Provide the recorded activity coefficient for the entries that follow.
Respond using a number only.

Return reported activity coefficient; argument: CCCCCC [hexane] + CCCCCCCCCCCCCCCCCCCCO 0.119

Return reported activity coefficient; argument: C1CCOC1 [tetrahydrofuran] + CCCCCCCCCCCCCCCCCCO 0.0166

Return reported activity coefficient; argument: CC(C)=O [acetone] + CCCCCCCCCCCCCCCCCCCCO 0.0587

Return reported activity coefficient; argument: CCCCl [1-chloropropane] + CCCCCCCCCCCCCCCCCCCCO 0.0778

Return reported activity coefficient; argument: C=CCCC [1-pentene] + CCCCCCCCCCCCCCCCCCCCO 0.0664

Return reported activity coefficient; argument: CC(C)=O [acetone] + CCCCCCCCCCCCCCCCCCO 0.017

Return reported activity coefficient; argument: ClC(Cl)(Cl)Cl [tetrachloromethane] + CCCCCCCCCCCCCCCCCCCCO 0.076

Return reported activity coefficient; argument: CCCCCCCC [octane] + CCCCCCCCCCCCCCCCCCCCO 0.138

Return reported activity coefficient; argument: CCCCC [pentane] + CCCCCCCCCCCCCCCCCCCCO 0.0668

Return reported activity coefficient; argument: CCCCCC [hexane] + CCCCCCCCCCCCCCCCCCO 0.0359

Return reported activity coefficient; argument: C1CCOC1 [tetrahydrofuran] + CCCCCCCCCCCCCCCCCCCCO 0.0506
